target: MAGL (Mus musculus); construct: mouse brain membrane fraction or cell lysates for mouse assays; from tissue; assay: In vitro competitive activity-based protein profiling, mouse MAGL; format: biochemical; conditions: 1 μM, read-out: MAGL % inh. 1 μM (mouse)
Sequence (O35678 whole entry): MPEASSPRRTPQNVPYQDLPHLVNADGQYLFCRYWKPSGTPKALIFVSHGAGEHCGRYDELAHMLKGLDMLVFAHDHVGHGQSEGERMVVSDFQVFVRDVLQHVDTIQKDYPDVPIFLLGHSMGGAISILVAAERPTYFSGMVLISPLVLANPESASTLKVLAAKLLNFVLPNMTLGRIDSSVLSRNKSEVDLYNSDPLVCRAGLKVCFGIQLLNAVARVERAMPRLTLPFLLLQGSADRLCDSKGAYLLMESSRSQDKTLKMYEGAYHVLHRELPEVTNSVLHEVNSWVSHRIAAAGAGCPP

MOLECULE: CN(Cc1ccc(C(F)(F)F)cc1)[C@@H]1C[C@@H]2CN(C(=O)n3cc(C(=O)N4CCCC4)cn3)C[C@@H]2C1 [Example 97]
inhibition at 1 µM: 50 to 75%
//
MOLECULE: CN(Cc1ccccc1C(F)(F)F)[C@@H]1C[C@@H]2CN(C(=O)n3cc(C(N)=O)cn3)C[C@@H]2C1 [Example 90]
inhibition at 1 µM: ≥ 75%
//
MOLECULE: CN(Cc1ccc(-c2cccnn2)cc1C(F)(F)F)[C@@H]1C[C@@H]2CN(C(=O)n3cc(C(N)=O)cn3)C[C@@H]2C1 [Example 191]
inhibition at 1 µM: ≥ 75%
//
MOLECULE: CNC(=O)c1cnn(C(=O)N2C[C@H]3C[C@@H](N(C)Cc4ccc(C(F)(F)F)cc4)C[C@H]3C2)c1 [Example 54]
inhibition at 1 µM: ≥ 75%
//
MOLECULE: CN(Cc1ccccc1Cl)[C@H]1C[C@@H]2CN(C(=O)n3cc(C(=O)N4CCN(C5CC5)CC4)cn3)C[C@@H]2C1 [Example 95]
inhibition at 1 µM: ≥ 75%
//
MOLECULE: O=C(c1cnn(C(=O)N2CC3CN(Cc4cccc(Oc5ccc(Cl)cc5)c4)CC3C2)c1)N1CCOCC1 (centres unmarked) [Example 199]
inhibition at 1 µM: 25 to 50%
//
MOLECULE: CN(Cc1ccc(N2CCOCC2)cc1)[C@H]1C[C@@H]2CN(C(=O)n3cc(Cl)cn3)C[C@@H]2C1 [Example 79]
inhibition at 1 µM: 50 to 75%
//
MOLECULE: CN(Cc1ccc(Oc2ccccc2)cc1)[C@@H]1C[C@@H]2CN(C(=O)n3cc(Cl)cn3)C[C@@H]2C1 [Example 158]
inhibition at 1 µM: ≥ 75%
//
MOLECULE: CN(Cc1cccc(C(F)(F)F)c1)[C@@H]1C[C@@H]2CN(C(=O)n3cc(Cl)cn3)C[C@@H]2C1 [Example 80]
inhibition at 1 µM: ≥ 75%
//
MOLECULE: O=C(N1CC2CN(Cc3cccc(Cl)c3)CC2C1)n1cc(C(F)(F)F)cn1 (centres unmarked) [Example 149]
inhibition at 1 µM: ≥ 75%
//
MOLECULE: CC(=O)N(Cc1cccc(Cl)c1)[C@H]1C[C@@H]2CN(C(=O)n3cc(Cl)cn3)C[C@@H]2C1 [Example 74]
inhibition at 1 µM: ≥ 75%
//
MOLECULE: O=C(N1CC2CN(Cc3ccccc3Cl)CC2C1)n1cc(Cl)cn1 (centres unmarked) [Example 116]
inhibition at 1 µM: ≥ 75%
//
MOLECULE: O=C(N1CC2CN(Cc3ccc(N4CCOCC4)cc3)CC2C1)n1cc(Cl)cn1 (centres unmarked) [Example 125]
inhibition at 1 µM: ≥ 75%
//
MOLECULE: CNC(=O)c1cnn(C(=O)N2CC3CN(Cc4cc(Cl)ccc4Cl)CC3C2)c1 (centres unmarked) [Example 21]
inhibition at 1 µM: ≥ 75%
//
MOLECULE: O=C(c1cnn(C(=O)N2CC3CN(Cc4cc(Cl)ccc4Cl)CC3C2)c1)N1CCCC1 (centres unmarked) [Example 22]
inhibition at 1 µM: ≥ 75%
//
MOLECULE: O=C(N1CCC2(CCN(Cc3ccc(Cl)c(Cl)c3)C2)C1)n1cc(Cl)cn1 (centres unmarked) [Example 127]
inhibition at 1 µM: ≥ 75%
//
MOLECULE: CC1COCCN1c1cc(Cl)ccc1CN1CC2CN(C(=O)n3cc(Cl)cn3)CC2C1 (centres unmarked) [Example 105]
inhibition at 1 µM: ≥ 75%
//
MOLECULE: CC1COCCN1c1cc(F)ccc1CN1CC2CN(C(=O)n3cc(Cl)cn3)CC2C1 (centres unmarked) [Example 104]
inhibition at 1 µM: ≥ 75%
//
MOLECULE: CN(Cc1cccc(Cl)c1)[C@@H]1C[C@@H]2CN(C(=O)n3cc(Cl)cn3)C[C@@H]2C1 [Example 65]
inhibition at 1 µM: ≥ 75%
//
MOLECULE: O=C(N1CC2CN(Cc3ccc(N4CCCC4)cc3)CC2C1)n1cc(Cl)cn1 (centres unmarked) [Example 123]
inhibition at 1 µM: ≥ 75%
//
MOLECULE: O=C(N1C[C@H]2C[C@@H](NCc3cccc(Cl)c3)C[C@H]2C1)n1cc(Cl)cn1 [Example 66]
inhibition at 1 µM: ≥ 75%
//
MOLECULE: CNC(=O)c1cnn(C(=O)N2CCC3(CCN(Cc4cccc(C(F)(F)F)c4)C3)C2)c1 (centres unmarked) [Example 42]
inhibition at 1 µM: 0 to 25%
//
MOLECULE: CN(Cc1ccc(C(F)(F)F)cc1)[C@@H]1C[C@@H]2CN(C(=O)n3cc(C(=O)N4CCN(C5CC5)CC4)cn3)C[C@@H]2C1 [Example 98]
inhibition at 1 µM: ≥ 75%
//
MOLECULE: O=C(N1CC2CN(Cc3ccc(F)cc3)CC2C1)n1cc(C(F)(F)F)cn1 (centres unmarked) [Example 146]
inhibition at 1 µM: ≥ 75%
//
MOLECULE: CN(Cc1cccc(Oc2cccnc2)c1)[C@@H]1C[C@@H]2CN(C(=O)n3cc(Cl)cn3)C[C@@H]2C1 [Example 165]
inhibition at 1 µM: ≥ 75%
//
MOLECULE: O=C(N1CC2CN(Cc3cccc(Cl)c3)CC2C1)n1cc(Cl)cn1 (centres unmarked) [Example 117]
inhibition at 1 µM: ≥ 75%
//
MOLECULE: CN(Cc1ccccc1C(F)(F)F)[C@@H]1C[C@@H]2CN(C(=O)n3cc(C(=O)N4CCN(C5CC5)CC4)cn3)C[C@@H]2C1 [Example 94]
inhibition at 1 µM: ≥ 75%
//
MOLECULE: CN(Cc1ccccc1C(F)(F)F)[C@@H]1C[C@@H]2CN(C(=O)n3cc(C(=O)N4CCCC4)cn3)C[C@@H]2C1 [Example 92]
inhibition at 1 µM: ≥ 75%
//
MOLECULE: CN(Cc1ccc(C(F)(F)F)cc1)[C@@H]1C[C@@H]2CN(C(=O)n3cc(C(=O)N4CCOCC4)cn3)C[C@@H]2C1 [Example 53]
inhibition at 1 µM: 25 to 50%
